molecular target: HLA-B*57:01; assay: IEDB peptide-MHC binding, purified MHC/direct/fluorescence; filed as Kd, often an IC50 or EC50 that approximates it; bounds were set here for any values at or beyond the usual limits of such assays; conditions: source organism: Burkholderia mallei ATCC 23344
pKd: −log10 of the molar value.
Reported endpoint: pKd

MALATGLWW 7.48

###

Reported pKd values follow for various sequences
molecular target: HLA-B*51:01; assay: IEDB peptide-MHC binding, purified MHC/competitive/radioactivity; filed as Kd, often an IC50 or EC50 that approximates it; bounds were set here for any values at or beyond the usual limits of such assays; conditions: source organism: Dengue virus 3 Martinique/1243/1999
pKd: −log10 of the molar value.
Reported endpoint: pKd

FSRENSYSGV ≤ 4.35
MPSMKRFRKE ≤ 4.16

###

molecular target: HLA-A*68:01; test: IEDB peptide-MHC binding, purified MHC/competitive/radioactivity; filed as Kd, often an IC50 or EC50 that approximates it; bounds were set here for any values at or beyond the usual limits of such assays; conditions: source organism: Triticum aestivum
pKd: −log10 of the molar value.
Reported endpoint: pKd

QLLQELCCQH 4.76

###

target: HLA-A*69:01; assay: IEDB peptide-MHC binding, purified MHC/competitive/fluorescence; filed as Kd, often an IC50 or EC50 that approximates it; bounds were set here for any values at or beyond the usual limits of such assays; conditions: source organism: Sudan ebolavirus
pKd: −log10 of the molar value.
Reported endpoint: pKd

YTENTSSYY ≤ 4.70

###

biological target: HLA-B*35:01; assay: IEDB peptide-MHC binding, purified MHC/direct/fluorescence; filed as Kd, often an IC50 or EC50 that approximates it; bounds were set here for any values at or beyond the usual limits of such assays; conditions: source organism: Rickettsia prowazekii
Reported endpoint: Kd (nM)

GSFKEYVFW 1900

###

target: HLA-B*15:09; experiment: IEDB peptide-MHC binding, purified MHC/direct/fluorescence; filed as Kd, often an IC50 or EC50 that approximates it; bounds were set here for any values at or beyond the usual limits of such assays; conditions: source organism: Vibrio cholerae V52
Reported endpoint: Kd

EVNAHIHTM ≥ 20 µM

###

target: HLA-B*44:02; test: IEDB peptide-MHC binding, purified MHC/competitive/fluorescence; filed as Kd, often an IC50 or EC50 that approximates it; bounds were set here for any values at or beyond the usual limits of such assays; conditions: source organism: Cryptosporidium parvum Iowa II
Reported endpoint: Kd

FTWQHNYYL ≥ 5 µM

###

target: HLA-C*15:02; test: IEDB peptide-MHC binding, purified MHC/direct/fluorescence; filed as Kd, often an IC50 or EC50 that approximates it; bounds were set here for any values at or beyond the usual limits of such assays; conditions: source organism: Giardia lamblia ATCC 50803
Reported endpoint: Kd

RYYLSFFHI ≥ 20 µM

###

molecular target: HLA-A*02:19; assay: IEDB peptide-MHC binding, purified MHC/direct/fluorescence; filed as Kd, often an IC50 or EC50 that approximates it; bounds were set here for any values at or beyond the usual limits of such assays; conditions: source organism: Salmonella enterica subsp. enterica serovar Typhimurium str. LT2
pKd: −log10 of the molar value.
Reported endpoint: pKd

FKYDSTKPL ≤ 4.70

###

Reported Kd values follow for various sequences
target: HLA-A*02:06; assay: IEDB peptide-MHC binding, purified MHC/competitive/radioactivity; filed as Kd, often an IC50 or EC50 that approximates it; bounds were set here for any values at or beyond the usual limits of such assays; details: source organism: Vaccinia virus WR
Reported endpoint: Kd (µM)

KLPTLFGRGV 0.0526
NTNQGNILM 5.94
IISYIILFIL 3.93
QILDNAAKYV 11.4
VIPDELIDV 0.556
KTEHCDDFMT 11.6
QLYTISSESL 4.75
TTLLNETAKV 1.65
TTIGTIAGGV 0.0843
ALVSDCASTI 0.24
FIMRNFLRSI 0.000447
AADLTQIFEV 0.0109
ILDNAAKYV 1.81
YLGPRVCWL 0.0232
FMSHVKSVT 4.32
GAFMYTKHSM 3.14
CTIVDSMII 4.58
VLALYSPPL 0.0326
YVHEGVSYEV 0.00908
LLGLILFVL 8.14

###

molecular target: HLA-B*15:42; experiment: IEDB peptide-MHC binding, purified MHC/competitive/fluorescence; filed as Kd, often an IC50 or EC50 that approximates it; bounds were set here for any values at or beyond the usual limits of such assays; conditions: source organism: Salmonella enterica subsp. enterica serovar Typhi
Reported endpoint: Kd

STFDLYVYR ≥ 5 µM

###

target: HLA-A*01:01; assay: IEDB peptide-MHC binding, purified MHC/competitive/radioactivity; filed as Kd, often an IC50 or EC50 that approximates it; bounds were set here for any values at or beyond the usual limits of such assays; details: source organism: Mammarenavirus whitewaterense
Reported Kd values follow for various sequences
Reported endpoint: Kd

TKHPSLNII ≥ 47.1 µM
HDHHFTPQI ≥ 78.1 µM

###

biological target: HLA-B*57:01; test: IEDB peptide-MHC binding, purified MHC/competitive/radioactivity; filed as Kd, often an IC50 or EC50 that approximates it; bounds were set here for any values at or beyond the usual limits of such assays; settings: source organism: Dengue virus 4 Philippines/H241/1956
pKd: −log10 of the molar value.
Reported pKd values follow for various sequences
Reported endpoint: pKd

IAVASGLLW 8.66
ASGKLVTQW 6.86
GADTSEVHW 6.01
STSLLFLNDM 7.06

###

target: HLA-A*31:01; assay: IEDB peptide-MHC binding, purified MHC/direct/fluorescence; filed as Kd, often an IC50 or EC50 that approximates it; bounds were set here for any values at or beyond the usual limits of such assays; conditions: source organism: Rickettsia conorii
Reported endpoint: Kd (nM)

KLNENIIRF 1280

###

Reported Kd values follow for various sequences
target: HLA-B*15:42; assay: IEDB peptide-MHC binding, purified MHC/competitive/fluorescence; filed as Kd, often an IC50 or EC50 that approximates it; bounds were set here for any values at or beyond the usual limits of such assays; details: source organism: human gammaherpesvirus 4
Reported endpoint: Kd

YTGAMTSKF ≥ 5 µM
RRYRRIYDL ≥ 5 µM
RPRPRTPEW ≥ 5 µM

###

target: HLA-A*66:01; assay: IEDB peptide-MHC binding, purified MHC/competitive/fluorescence; filed as Kd, often an IC50 or EC50 that approximates it; bounds were set here for any values at or beyond the usual limits of such assays; conditions: source organism: Yersinia pestis CO92
Reported endpoint: Kd

QQRPDLILV ≥ 5 µM

###

molecular target: HLA-B*08:01; test: IEDB peptide-MHC binding, purified MHC/direct/fluorescence; filed as Kd, often an IC50 or EC50 that approximates it; bounds were set here for any values at or beyond the usual limits of such assays; details: source organism: West Nile virus
pKd: −log10 of the molar value.
Reported endpoint: pKd

HSRRSRRSL 6.68

###

target: HLA-B*18:01; experiment: IEDB peptide-MHC binding, purified MHC/competitive/fluorescence; filed as Kd, often an IC50 or EC50 that approximates it; bounds were set here for any values at or beyond the usual limits of such assays; settings: source organism: Rickettsia akari str. Hartford
Reported endpoint: Kd

FTARIIIFS ≥ 20 µM

###

target: HLA-B*51:01; assay: IEDB peptide-MHC binding, purified MHC/competitive/fluorescence; filed as Kd, often an IC50 or EC50 that approximates it; bounds were set here for any values at or beyond the usual limits of such assays; conditions: source organism: Giardia lamblia ATCC 50803
pKd: −log10 of the molar value.
Reported endpoint: pKd

MTYLDGHPV ≤ 5.30

###

molecular target: HLA-A*03:01; experiment: IEDB peptide-MHC binding, purified MHC/competitive/radioactivity; filed as Kd, often an IC50 or EC50 that approximates it; bounds were set here for any values at or beyond the usual limits of such assays; conditions: source organism: Mopeia Lassa virus reassortant 29
pKd: −log10 of the molar value.
Reported endpoint: pKd

LTKFVAAALH 4.80

###

Reported IC50 values follow for various sequences
molecular target: HLA-B*08:01; assay: IEDB peptide-MHC binding, purified MHC/competitive/fluorescence; bounds were set here for any values at or beyond the usual limits of such assays; conditions: source organism: Zaire ebolavirus
Reported endpoint: IC50 (µM)

SGKNIKRTL 63.6
SFKAALSSL 45.6

###

target: HLA-A*11:01; assay: IEDB peptide-MHC binding, purified MHC/competitive/fluorescence; bounds were set here for any values at or beyond the usual limits of such assays; details: source organism: Sudan ebolavirus
Reported IC50 values follow for various sequences
Reported endpoint: IC50 (µM)

ASSRITKGR 0.765
LSNTTGRLI 55.5
KAIDFLLRR 2.74
KNSPGMVPL 22.4

###

target: HLA-B*53:01; test: IEDB peptide-MHC binding, purified MHC/competitive/fluorescence; filed as Kd, often an IC50 or EC50 that approximates it; bounds were set here for any values at or beyond the usual limits of such assays; settings: source organism: Rickettsia akari str. Hartford
Reported endpoint: Kd

FTARIIIFS ≥ 5 µM
